# TESTED SYSTEM: Hypoxia-inducible factor 1-alpha (Homo sapiens)
# Sequence (Q16665 whole entry): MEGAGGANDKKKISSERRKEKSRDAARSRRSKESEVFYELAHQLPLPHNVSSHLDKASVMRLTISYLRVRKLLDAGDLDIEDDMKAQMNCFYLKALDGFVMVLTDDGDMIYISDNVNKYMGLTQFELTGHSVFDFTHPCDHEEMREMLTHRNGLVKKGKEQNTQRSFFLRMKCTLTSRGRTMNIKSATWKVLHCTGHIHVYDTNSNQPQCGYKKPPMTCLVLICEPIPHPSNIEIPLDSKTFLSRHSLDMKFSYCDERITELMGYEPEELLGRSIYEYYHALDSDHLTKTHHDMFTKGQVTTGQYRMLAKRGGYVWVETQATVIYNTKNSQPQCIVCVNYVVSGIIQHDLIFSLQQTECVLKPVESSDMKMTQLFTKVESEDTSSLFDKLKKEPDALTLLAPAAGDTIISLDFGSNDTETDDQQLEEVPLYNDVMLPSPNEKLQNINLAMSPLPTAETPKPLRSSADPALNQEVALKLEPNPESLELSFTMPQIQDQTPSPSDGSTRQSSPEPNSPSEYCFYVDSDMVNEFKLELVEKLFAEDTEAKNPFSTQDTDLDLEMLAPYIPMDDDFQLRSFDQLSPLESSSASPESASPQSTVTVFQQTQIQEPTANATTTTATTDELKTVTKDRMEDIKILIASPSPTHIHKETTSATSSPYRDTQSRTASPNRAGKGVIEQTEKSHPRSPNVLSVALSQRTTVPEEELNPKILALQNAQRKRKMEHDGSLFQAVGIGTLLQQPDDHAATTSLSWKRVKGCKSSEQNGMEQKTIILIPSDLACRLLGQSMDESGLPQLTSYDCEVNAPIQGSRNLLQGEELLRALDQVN
# PROTOCOL TEXT: ChEBML_1685544
pIC50: −log10 of the molar value.
TEST READOUT: pIC50

- C=Cc1ccc(COc2cccc(OCc3ccccc3/C(=N\OC)C(=O)OC)c2)cc1: 6.06
- CO/N=C(/C(=O)OC)c1ccccc1COc1cccc(OCc2cc(C(F)(F)F)cc(C(F)(F)F)c2)c1: 6.03
- CO/N=C(\C)c1cccc(OCc2ccccc2/C(=N\OC)C(=O)OC)c1: 5.34
- CO/N=C/c1ccc(OC)c(OCc2ccccc2/C(=N\OC)C(=O)OC)c1: 4.83

[P] CO/N=C/c1cccc(OCc2ccccc2/C(=N\OC)C(=O)OC)c1
[Q] CO/N=C(/C(=O)OC)c1ccccc1COc1cccc(O)c1
[R] CO/N=C(/C(=O)OC)c1ccccc1COc1cccc(OCc2ccccc2)c1
[S] CO/N=C(/C(=O)OC)c1ccccc1COc1cccc(OCc2ccc(Cl)cc2)c1
Falling order of pIC50, please. // list labels; follow requested order
S, R, P, Q
(S: 6.22, R: 5.95, P: 5.47, Q: 5.04)
